target_or_test_system: haloperidol binding (Bos taurus)
Construct: from tissue
Sequence (P20288 whole entry): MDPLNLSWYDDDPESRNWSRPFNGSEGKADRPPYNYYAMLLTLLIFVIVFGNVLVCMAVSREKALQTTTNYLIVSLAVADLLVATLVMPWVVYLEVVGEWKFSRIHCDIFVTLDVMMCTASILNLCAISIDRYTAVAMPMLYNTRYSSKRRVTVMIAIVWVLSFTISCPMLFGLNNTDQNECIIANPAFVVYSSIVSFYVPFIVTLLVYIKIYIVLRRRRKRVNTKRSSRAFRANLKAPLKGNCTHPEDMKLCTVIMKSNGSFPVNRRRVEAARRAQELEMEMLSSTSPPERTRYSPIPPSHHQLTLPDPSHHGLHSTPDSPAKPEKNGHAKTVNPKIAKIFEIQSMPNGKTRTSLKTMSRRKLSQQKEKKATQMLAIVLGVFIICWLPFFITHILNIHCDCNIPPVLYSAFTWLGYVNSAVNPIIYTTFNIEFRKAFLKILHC
measurement_notes: Inhibition of haloperidol binding in a receptor binding assay
measured_parameter: IC50 (nM)
Provide the reading as a plain figure in nM.

Incoming: Return IC50 measured with haloperidol binding (Bos taurus) given this molecule: Cl.Cl.Nc1nc(CCCN2CC=C(c3ccccc3)CC2)cs1 [Example 1e, dihydrochloride]
Outgoing: 346

---

Catalogue of IC50 readings, one per entry.
target_or_test_system: haloperidol binding (Bos taurus)
Construct: from tissue
measurement_notes: Inhibition of haloperidol binding in a receptor binding assay
assay_context: read-out: Inhibition of Haloperidol Binding (IC50 nM)
Provide the reading as a plain figure in nM.

- mol_smiles: "Cc1nc(N)sc1CCN1CC=C(c2ccccc2)CC1"
  IC50, nM: 400
- mol_smiles: "Cc1nc(N)sc1CCCN1CCN(c2ncccn2)CC1"
  IC50, nM: 370
- mol_smiles: "Nc1nc(CCCN2CCN(c3ncccn3)CC2)cs1"
  IC50, nM: 1600
- mol_smiles: "Nc1nc(CCCCN2CCN(c3ncccn3)CC2)cs1"
  IC50, nM: 1060
- mol_smiles: "Cc1nc(N)sc1CCCN1CCN(c2ccccn2)CC1"
  IC50, nM: 249
- mol_smiles: "Cc1nc(N)sc1CCN1CCN(c2ccccn2)CC1"
  IC50, nM: 75
- mol_smiles: "Cc1nc(N)sc1CCN1CCN(c2ncccn2)CC1"
  IC50, nM: 118

Field: next molecule
Incoming: Consider the molecule Nc1nc(CCCCN2CCN(c3ccccn3)CC2)cs1 and give its measured IC50.
Outgoing: 488

---

System: dopamine neuron firing
measurement_notes: Inhibition of dopamine neuron firing in rats
Type: in vivo
assay_context: 2.5 mg/kg, IP
measured_parameter: Inhibition of Dopamine Neuron Firing in Rats (%)
Provide the reading as a plain figure in %.

Study these solved cases before continuing.
- compound: "Cc1nc(N)sc1CCN1CC=C(c2ccccc2)CC1 [Example 1d]"
  value_observed: 70
- compound: "Cc1nc(N)sc1CCCN1CCN(c2ccccn2)CC1 [Example 1j]"
  value_observed: 98
- compound: "Cc1nc(N)sc1CCCN1CCN(c2ncccn2)CC1 [Example 1]"
  value_observed: 90
- compound: "Cc1nc(N)sc1CCN1CCN(c2ccccn2)CC1 [Example 1h]"
  value_observed: 100

Incoming: Consider the compound Cl.Cl.Nc1nc(CCCN2CC=C(c3ccccc3)CC2)cs1 [Example 1e] and give its measured Inhibition of Dopamine Neuron Firing in Rats.
Outgoing: 78
